Assay System: dopamine transporter (DAT), cocaine binding site (Rattus norvegicus, UniProt P23977)
Construct: Rat striatal membranes are prepared from frozen tissue; from tissue; host or cells: rat caudate-putamen (striatal) membranes from frozen tissue
Sequence (P23977 whole entry): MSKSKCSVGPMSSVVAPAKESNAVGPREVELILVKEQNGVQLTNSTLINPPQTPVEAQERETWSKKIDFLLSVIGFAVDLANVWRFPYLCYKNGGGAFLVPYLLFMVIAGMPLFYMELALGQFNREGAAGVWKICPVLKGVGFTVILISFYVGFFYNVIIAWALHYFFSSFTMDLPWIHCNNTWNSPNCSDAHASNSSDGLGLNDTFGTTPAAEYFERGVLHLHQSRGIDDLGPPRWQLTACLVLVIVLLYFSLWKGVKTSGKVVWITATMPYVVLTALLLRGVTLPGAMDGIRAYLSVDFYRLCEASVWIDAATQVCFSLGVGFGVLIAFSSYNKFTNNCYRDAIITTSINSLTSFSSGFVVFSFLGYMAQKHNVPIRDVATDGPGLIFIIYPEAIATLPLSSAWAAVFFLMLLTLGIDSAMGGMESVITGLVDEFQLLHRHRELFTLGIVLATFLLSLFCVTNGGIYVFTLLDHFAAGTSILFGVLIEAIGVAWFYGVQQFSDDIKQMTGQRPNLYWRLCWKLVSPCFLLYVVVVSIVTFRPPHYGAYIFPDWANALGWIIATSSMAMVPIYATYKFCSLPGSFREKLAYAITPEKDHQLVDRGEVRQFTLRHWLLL
Test Description: Displacement of [^3 H]WIN 35,428 binding (rat striatal / caudate-putamen membranes)
Settings: mean ± SEM, three experiments in triplicate; unlabeled ligand; rat caudate-putamen
The molecules listed here are annotated with their pKi.
Reminder that pKi is minus the log10 of a molar concentration.

Consider the worked cases shown below.
>>> assay_value("COC(=O)C[C@@H]1[C@@H](Cc2ccccc2)C[C@@H]2CC[C@H]1N2C (relative stereo) [Compound 17a]")
6.97
>>> assay_value("COC(=O)C[C@H]1[C@@H](Cc2ccccc2)C[C@@H]2CC[C@H]1N2C (relative stereo) [Compound 16a]")
7.04

Proceeding to the next molecule to report its pKi.
In plain terms, COC(=O)C[C@@H]1[C@@H](Cc2ccccc2)C[C@@H]2[C@H](C)C[C@H]1N2C (relative stereo) [Compound 17b] has a documented pKi of 6.27
